B1: EEHEE_rd4_0647 (parent)
chain: MQVTWGNVTVTFSNPEEAKKYAEKVARKLGGQVELHNGQFRIK

Variants of: B1
Experiment: folding stability dG (cDNA display proteolysis); higher = more stable
Conditions: PBS, room temperature
# binarize folding stability dG: threshold 2 kcal/mol inclusive, high side 1, low side 0

[[record]]
biosequence = "MQVTWGNVTWTFSNPEEAKKYAEKVARKLGGQVELHNGQFRIK [V10W]"
class_label = 1

[[record]]
biosequence = "MQVTWGNVTVTFSNPEEAKKYAEKVAHKLGGQVELHNGQFRIK [R27H]"
class_label = 1

[[record]]
biosequence = "MQVTWGNVTVTFSNPEEAKKYAEKVARKLGGQVELHHGQFRIK [N37H]"
class_label = 1

[[record]]
biosequence = "MQVTWGNVTVTFSNPEEAKKYAEKVARKLGGQVELHNYQFRIK [G38Y]"
class_label = 0

[[record]]
biosequence = "MQVTWGNVQVTFSNPEEAKKYAEKVARKLGGQVELHNGQFRIK [T9Q]"
class_label = 0

[[record]]
biosequence = "MQVTWGNVTVTFSNPEEAKKYAEKVARKLGGQVYLHNGQFRIK [E34Y]"
class_label = 1

[[record]]
biosequence = "MQVTWGNVTVTFSNPEEAKKPAEKVARKLGGQVELHNGQFRIK [Y21P]"
class_label = 0

[[record]]
biosequence = "MQVTGGNVTVTFSNPEEAKKYAEKVARKLGGQVELHNGQFRIK [W5G]"
class_label = 0

[[record]]
biosequence = "MQVTWGNVTVTFSNPEEAKKYAEKVARKLGGQVELHNMQFRIK [G38M]"
class_label = 0

[[record]]
biosequence = "MQVTHGNVTVTFSNPEEAKKYAEKVARKLGGQVELHNGQFRIK [W5H]"
class_label = 1

[[record]]
biosequence = "MQVTWGNVTVTFSNPEEAKKYAEKVARKLGGQVEWHNGQFRIK [L35W]"
class_label = 1

[[record]]
biosequence = "MQVTWGNVTVTFSNPEEAKKYIEKVARKLGGQVELHNGQFRIK [A22I]"
class_label = 0

[[record]]
biosequence = "MQVTWGNVTVTFSNPEQAKKYAEKVARKLGGQVELHNGQFRIK [E17Q]"
class_label = 1

[[record]]
biosequence = "MQVTWGNVTVTFSNPEEAKKYAGKVARKLGGQVELHNGQFRIK [E23G]"
class_label = 0

[[record]]
biosequence = "MQVTWGNVTVTFSNPEEAKKYAEKVARKLRGQVELHNGQFRIK [G30R]"
class_label = 1

[[record]]
biosequence = "MQVTWGNVTVTFKNPEEAKKYAEKVARKLGGQVELHNGQFRIK [S13K]"
class_label = 1

[[record]]
biosequence = "MQVTWGNVTVTFSNPEEQKKYAEKVARKLGGQVELHNGQFRIK [A18Q]"
class_label = 0

[[record]]
biosequence = "MQVTWGNVAVTFSNPEEAKKYAEKVARKLGGQVELHNGQFRIK [T9A]"
class_label = 0

[[record]]
biosequence = "MQVTWGNVTVTFSNPEDAKKYAEKVARKLGGQVELHNGQFRIK [E17D]"
class_label = 1

[[record]]
biosequence = "MQVTWGNVTVTFSNPEEAKKYAEKVARKFGGQVELHNGQFRIK [L29F]"
class_label = 1

[[record]]
biosequence = "MQVTWGNVTVTFSNPEEAKKYAEKVARKLGGQVELHNSQFRIK [G38S]"
class_label = 0

[[record]]
biosequence = "MQVTWGNVTVTFSNPEEAKKYAEKVARKLLGQVELHNGQFRIK [G30L]"
class_label = 0

[[record]]
biosequence = "MQVTWGEVTVTFSNPEEAKKYAEKVARKLGGQVELHNGQFRIK [N7E]"
class_label = 1

[[record]]
biosequence = "MQVTWGNVTVTFSNPEEAKKYAEKVFRKLGGQVELHNGQFRIK [A26F]"
class_label = 0

[[record]]
biosequence = "MQITWGNVTVTFSNPEEAKKYAEKVARKLGGQVELHNGQFRIK [V3I]"
class_label = 0

[[record]]
biosequence = "MQVTWGNVTVTFSNPEEAKKYAEKVARKLGGQVPLHNGQFRIK [E34P]"
class_label = 0

[[record]]
biosequence = "MQVTWGNVTVWFSNPEEAKKYAEKVARKLGGQVELHNGQFRIK [T11W]"
class_label = 1

[[record]]
biosequence = "MQVTWGNVTVTFSNPEEAKKYAEKHARKLGGQVELHNGQFRIK [V25H]"
class_label = 0

[[record]]
biosequence = "MQVTWGNVTVTFSNPEEAKKYAEKVARPLGGQVELHNGQFRIK [K28P]"
class_label = 0

[[record]]
biosequence = "MQVTWGNVTVTFSNPEEAKKTAEKVARKLGGQVELHNGQFRIK [Y21T]"
class_label = 0

[[record]]
biosequence = "MQVTWGNVTVTFSNPEEAKKYAEKVARKLQGQVELHNGQFRIK [G30Q]"
class_label = 1

[[record]]
biosequence = "MQVTWGNVTVTFDNPEEAKKYAEKVARKLGGQVELHNGQFRIK [S13D]"
class_label = 1

[[record]]
biosequence = "MQVTWGNVTVTFSNPEEAKKYAEKVARNLGGQVELHNGQFRIK [K28N]"
class_label = 1

[[record]]
biosequence = "MQVTWGNVTVTFSNPEEAKKYAEKVARKLFGQVELHNGQFRIK [G30F]"
class_label = 0

[[record]]
biosequence = "MQVTWVNVTVTFSNPEEAKKYAEKVARKLGGQVELHNGQFRIK [G6V]"
class_label = 0

[[record]]
biosequence = "MQVTWGNVTVTFSNPEEAWKYAEKVARKLGGQVELHNGQFRIK [K19W]"
class_label = 1

[[record]]
biosequence = "MQVTWGNVPVTFSNPEEAKKYAEKVARKLGGQVELHNGQFRIK [T9P]"
class_label = 0

[[record]]
biosequence = "MQVTWGNVTVTFSNPEEAKKYAEKVARKLGRQVELHNGQFRIK [G31R]"
class_label = 0

[[record]]
biosequence = "MQVTWGNVTVCFSNPEEAKKYAEKVARKLGGQVELHNGQFRIK [T11C]"
class_label = 1

[[record]]
biosequence = "MRVTWGNVTVTFSNPEEAKKYAEKVARKLGGQVELHNGQFRIK [Q2R]"
class_label = 1

[[record]]
biosequence = "MQVTWGNVTVTFSNPEEAKKYAEDVARKLGGQVELHNGQFRIK [K24D]"
class_label = 1

[[record]]
biosequence = "MQVTWGWVTVTFSNPEEAKKYAEKVARKLGGQVELHNGQFRIK [N7W]"
class_label = 1

[[record]]
biosequence = "MQVTWGNVTVTFSNPEEAKKYYEKVARKLGGQVELHNGQFRIK [A22Y]"
class_label = 0

[[record]]
biosequence = "MQVTWGNVTVTFSNPEEAKKYAEKVARKLGNQVELHNGQFRIK [G31N]"
class_label = 0

[[record]]
biosequence = "MQVTWGNVTVTFCNPEEAKKYAEKVARKLGGQVELHNGQFRIK [S13C]"
class_label = 1

[[record]]
biosequence = "MQVTWGNVTVTFSNPEEAKKYAEKVARKLGGQVELHNGQFRDK [I42D]"
class_label = 0

[[record]]
biosequence = "MQVTWGNVTVTFSNPTEAKKYAEKVARKLGGQVELHNGQFRIK [E16T]"
class_label = 1

[[record]]
biosequence = "MQVTWGNATVTFSNPEEAKKYAEKVARKLGGQVELHNGQFRIK [V8A]"
class_label = 0

[[record]]
biosequence = "MQNTWGNVTVTFSNPEEAKKYAEKVARKLGGQVELHNGQFRIK [V3N]"
class_label = 0

[[record]]
biosequence = "MQVTWGNVTVTFSNREEAKKYAEKVARKLGGQVELHNGQFRIK [P15R]"
class_label = 1

